- Test method notes: in vitro
- Run parameters: human, HaCaT keratinocytes
Quantity kind: cytotoxicity at 72 h, 500 μg/ml (%)
Answers are plain numbers, in %.

Exam item: Look up cytotoxicity at 72 h, 500 μg/ml for this substance: H-WVQRVVEKFLK-OH [IS181]
Marked response: 26.9

====

- Test method notes: Cell viability (MTT assay) in HaCaT
- Type: cell-based, Human
- Run parameters: human, HaCaT keratinocytes; HaCaT, 1% FBS, 72 h, 0.1 μg/ml
Quantity kind: cytotoxicity at 72 h, 0.1 μg/ml (%)
One number for each entry, in %.

Exam item: Which value of cytotoxicity at 72 h, 0.1 μg/ml has been reported for H-WVQRVVEKFLK-OH [IS181] in the records?
Marked response: -56.2
